# Test system: NCI-H23 lung
# runDescription: NCI tumour cell line growth inhibition, 48 h; in the data active = GI50 below about 0.43 µM; inactive = the rest
*1 amine or outer side, *2 acyl side, *3 side chain or, on linkers, in order; H or OH if unused. Where a SMILES comes first, the peptide text is derived from it. [ ]: non-standard residue; d: D form. The star is where a group is joined. X11 = C/C=C/CC(C)C(O)[C@H](N[*:1])C(=O)[*:2]; Decanoyl = CCCCCCCCCC(=O)*; Leu(ol) = CC(C)C[C@H](N)CO; Aib = CC(C)(N)C(=O)O
Outcomes: YES (active), NO (inactive)

>>> discretelabel("CCc1ccc(SC2c3ccc(N(CC)CC)cc3Oc3nc(N)c(C#N)c(N)c32)cc1 (stereo not given)")
"NO"
>>> discretelabel("CN1CCN(Cc2ccc(NC(=O)c3cncc(C#Cc4cnc5ccc(OCCCS(C)(=O)=O)nn45)c3)cc2C(F)(F)F)CC1")
"YES"
>>> discretelabel("CN1CCN(Cc2ccc(NC(=O)c3cncc(C#Cc4cnc5ccc(N6CCOCC6)nn45)c3)cc2C(F)(F)F)CC1")
"YES"
>>> discretelabel("CN1CCN(Cc2ccc(NC(=O)c3cncc(C#Cc4cnc5ccc(N)nn45)c3)cc2C(F)(F)F)CC1")
"NO"
>>> discretelabel("C/C=C/CC(C)C(O)[C@H](NC(=O)[C@@H]1CCCN1C(=O)C(C)(C)NC(=O)CCCCCCCCC)C(=O)NC(C)(C)C(=O)N[C@@H](CCC(N)=O)C(=O)N[C@H](CCC(N)=O)C(=O)NC(C)(C)C(=O)NC(C)(C)C(=O)N[C@@H](CCC(N)=O)C(=O)N[C@H](CC(C)C)C(=O)N[C@H](CO)CC(C)C (stereo partly drawn) (Decanoyl-[Aib]P[X11][Aib]Q[dQ][Aib][Aib]Q[dL][Leu(ol)])")
"NO"

* * *

# Test system: OVCAR-4 ovarian
# runDescription: NCI tumour cell line growth inhibition, 48 h; in the data active means GI50 below about 0.43 µM; inactive means the rest
*1 amine or outer side, *2 acyl side, *3 side chain or, on linkers, in order; H or OH if unused. Where a SMILES comes first, the peptide text is derived from it. [ ]: non-standard residue; d: D form. The star is where a group is joined. X11 = C/C=C/CC(C)C(O)[C@H](N[*:1])C(=O)[*:2]; Decanoyl = CCCCCCCCCC(=O)*; Leu(ol) = CC(C)C[C@H](N)CO; Aib = CC(C)(N)C(=O)O
Outcome codes: active, inactive

>>> discretelabel("C/C=C/CC(C)C(O)[C@H](NC(=O)[C@@H]1CCCN1C(=O)C(C)(C)NC(=O)CCCCCCCCC)C(=O)NC(C)(C)C(=O)N[C@@H](CCC(N)=O)C(=O)N[C@H](CCC(N)=O)C(=O)NC(C)(C)C(=O)NC(C)(C)C(=O)N[C@@H](CCC(N)=O)C(=O)N[C@H](CC(C)C)C(=O)N[C@H](CO)CC(C)C (stereo partly drawn) (Decanoyl-[Aib]P[X11][Aib]Q[dQ][Aib][Aib]Q[dL][Leu(ol)])")
"inactive"
>>> discretelabel("CCc1ccc(SC2c3ccc(N(CC)CC)cc3Oc3nc(N)c(C#N)c(N)c32)cc1 (stereo not given)")
"inactive"
>>> discretelabel("CN1CCN(Cc2ccc(NC(=O)c3cncc(C#Cc4cnc5ccc(N6CCOCC6)nn45)c3)cc2C(F)(F)F)CC1")
"active"
>>> discretelabel("CN1CCN(Cc2ccc(NC(=O)c3cncc(C#Cc4cnc5ccc(OCCCS(C)(=O)=O)nn45)c3)cc2C(F)(F)F)CC1")
"inactive"
>>> discretelabel("CN1CCN(Cc2ccc(NC(=O)c3cncc(C#Cc4cnc5ccc(N)nn45)c3)cc2C(F)(F)F)CC1")
"inactive"
